Readings of Complete for the listed compounds
# System: NCI-H292 lung cancer cells
# PROTOCOL: FDA drug screening, complete media vs cholesterol-free media without statin (TABLE 1)
# Format: cell-based, human
# MEASUREMENT PARAMETERS: NCI-H292 cells, complete media
Counter-ions that a name gives are not always drawn.
READOUT LABEL: Complete

• O=C(O)c1cc(=O)c2ccccc2o1 = 0.8012
• CCCc1nn(C)c2c(=O)[nH]c(-c3cc(S(=O)(=O)N4CCN(CCO)CC4)ccc3OCC)nc12 = 0.5699
• O=C(CCBr)N1CCN(C(=O)CCBr)CC1 = 1.078
• O=C(C1CCCCC1)N1CC(=O)N2CCc3ccccc3C2C1 (centres unmarked) = 1.043
• Cc1ccc(C(C)C)cc2c(C)ccc1-2 = 1.025
• CC(=O)O[C@]1(C(C)=O)CC[C@H]2[C@@H]3CCC4=CC(=O)CCC4=C3[C@@H](c3ccc(N(C)C)cc3)C[C@@]21C [Ulipristal acetate] = 0.8186
• C[C@@H](NCCCc1cccc(C(F)(F)F)c1)c1cccc2ccccc12 [Cinacalcet (hydrochloride)] = 0.7862
• C=C1CC[C@@H]2[C@](C)(COC(=O)CCC(=O)[O-])[C@H](OC(=O)CCC(=O)O)CC[C@@]2(C)[C@@H]1/C=C/C1=CCOC1=O.[K+] [Kalii Dehydrographolidi Succinas] = 1.081
